Test system: CU-ACC2
method_summary: area under concentration-response curve (viability) (AUC (a.u.)); higher = less active
setup_conditions: 48 h
Given measured area under concentration-response curve, output Condition met if it is greater than or equal to 500 and Condition not met if not.

- compound: "OCc1ccc(-c2ccc(-c3ccc(CO)s3)o2)s1"
  classification: "Condition met"
- compound: "C[C@H]1C[C@@H](n2c(Nc3ccc(OC(F)(F)F)cc3)nc3cc(CCC(=O)O)ccc32)CC(C)(C)C1"
  classification: "Condition not met"
- compound: "OC(=O)\\C1=C\\N(C2CC2)C3=CC(=C(F)C=C3C1=O)N4CCNCC4"
  classification: "Condition met"
- compound: "COC(=O)Nc1nc2cc(C(=O)c3ccccc3)ccc2[nH]1"
  classification: "Condition not met"
- compound: "CN[C@@H]1Cc2cccc3[nH]c(=O)n(c23)C1"
  classification: "Condition met"
- compound: "C[N]1C=C(C2=C1C=CC=C2)\\C3=C(\\C(=O)NC3=O)C4=C5CC(CN)CC[N]5C6=C4C=CC=C6 (centres undefined)"
  classification: "Condition met"
- compound: "CC[S+](=O)([O-])N1CCN(c2ccc(Nc3ncc(C(N)=O)c(NC4CC4)n3)cc2)CC1"
  classification: "Condition met"
- compound: "FC(F)(F)c1ccc(Nc2nc3cc(Oc4ccnc(-c5ncc(C(F)(F)F)[nH]5)c4)ccc3[nH]2)cc1"
  classification: "Condition met"
- compound: "COC(=O)Nc1ccc(-c2nc(N3CCOCC3)c3cnn(C4CCN(Cc5cccnc5)CC4)c3n2)cc1"
  classification: "Condition met"

The measured values listed here are drawn from the supplement of paper PMC10949913.
